Cited source for all entries: PubChem BioAssay (NCI)

# Tested on: RXF 393 renal
# Experiment: NCI-60 one-dose screen, 48 h
# Run Conditions: 10 µM unless noted
Compounds without any hit were thinned out: in the full panel of roughly 83,000, 20% have a hit. The source made the active and inactive calls. The calls were made as follows: active = growth percent below 10; inactive = the rest.
Pick one and only one: 1 (yes) = active, 0 (no) = inactive

IN: For Nc1ccc(N=Nc2ccccc2)c2cc(S(=O)(=O)O)ccc12 , what call appears in the results of this test?
OUT: 0 (no)

IN: For CCCC(C)c1cc(Cc2cc(Cl)cc(Cl)c2O)c(O)c(Cc2cc(Cl)cc(Cl)c2O)c1 (configuration not stated) , what call appears in the results of this test?
OUT: 1 (yes)

IN: For O=C(Nc1ccc(-n2cc(-c3ccncc3)c(-c3ccc(Cl)c(O)c3)n2)cc1)c1cc(C(F)(F)F)cc(C(F)(F)F)c1 , what call appears in the results of this test?
OUT: 1 (yes)

IN: For CC1Cc2cc(F)ccc2-n2cccc21 (configuration not stated) , what call appears in the results of this test?
OUT: 0 (no)

IN: For COc1nc(OC)nc(-c2cc(-c3cc(OC)c(OC)c(OC)c3)no2)n1 , what call appears in the results of this test?
OUT: 0 (no)

IN: For COc1cc(OC)cc(-c2ccc(-c3ccc(C(=N)N)cc3)s2)c1 , what call appears in the results of this test?
OUT: 1 (yes)

IN: For CCC(C)(C)c1ccc(OCCCCCCN2CCN(c3ccc(C)c(Cl)c3)CC2)cc1 , what call appears in the results of this test?
OUT: 0 (no)

IN: For N#Cc1ccc(OCc2nc(N)nc(N)c2-c2ccc(Cl)c(Cl)c2)cc1 , what call appears in the results of this test?
OUT: 0 (no)

IN: For CC(C)C(=O)c1ccc(Cl)s1 , what call appears in the results of this test?
OUT: 0 (no)

IN: For Nc1ccc(S(=O)(=O)Nc2cc(F)cc(F)c2)cc1 , what call appears in the results of this test?
OUT: 0 (no)

IN: For CC(C)(C)C(=O)CCCCCCCC/C=C/CCCC(O)c1ccco1 (configuration not stated) , what call appears in the results of this test?
OUT: 0 (no)

IN: For O=C(/C(Br)=C/c1ccccc1)c1ccccc1 , what call appears in the results of this test?
OUT: 1 (yes)

IN: For Nc1nc2c(c3cnccc13)C(c1ccc(Cl)c(Cl)c1)Cc1cnccc1-2 (configuration not stated) , what call appears in the results of this test?
OUT: 1 (yes)

IN: For NC(CSC(c1ccccc1)(c1ccccc1)c1ccccc1)C(=O)NCC(=O)O (configuration not stated) , what call appears in the results of this test?
OUT: 0 (no)

IN: For CCCCN(CCCC)CCCNc1c2c(nc3ccc(Cl)cc13)CCCC2 , what call appears in the results of this test?
OUT: 0 (no)

IN: For COc1cc(NC(C)CCCN)c2nccc(C)c2c1OC (configuration not stated) , what call appears in the results of this test?
OUT: 0 (no)

IN: For CCCCCCCCCC[N+](C)(C)N , what call appears in the results of this test?
OUT: 0 (no)

----------
# Test system: COLO 205 colon
# Experiment: NCI-60 one-dose screen, 48 h (100 = growth as untreated, 0 = no growth, -100 = all killed)
# Run Conditions: 10 µM unless noted
This is part of a sample that, as a whole, favours compounds with a hit. Of some 83,000 tested, about 20% had one in any assay.
Measured Property: growth (%)
Quick note: give the figure in %, leave out the unit.

IN: Report growth, nothing else, for this compound: O=C(CCl)c1ccc2c(c1)CCCC2
OUT: 113

IN: Report growth, nothing else, for this compound: CCCCCc1ccnc(CC(=O)c2ccc(OC)cc2)c1
OUT: 87.3

IN: Report growth, nothing else, for this compound: C[C@@H](c1ccc2c(c1)[nH]c1ccc(Cl)cc12)c1nc2ccccc2[nH]1
OUT: 123

IN: Report growth, nothing else, for this compound: CCOC(=O)C1=C(C(F)(F)F)NC(=O)NC1CN1C(=O)c2ccccc2C1=O (stereo not given)
OUT: 116

IN: Report growth, nothing else, for this compound: BrCCCOc1ccc(Oc2ccc(OCCCBr)cc2)cc1
OUT: 134
